What follows is a collection of Kis values obtained with Carbonic anhydrase 9 (Homo sapiens) (UniProt Q16790).
Reported property: Kis (nM)

# example entries with known answers
* COC(=O)[C@H]1O[C@@H](n2nncc2-c2ccc(S(N)(=O)=O)cc2)[C@H](OC(C)=O)[C@@H](OC(C)=O)[C@@H]1OC(C)=O | 7.7
* NS(=O)(=O)c1ccc(-c2cnnn2[C@@H]2O[C@H](CO)[C@@H](O[C@H]3O[C@H](CO)[C@@H](O)[C@H](O)[C@H]3O)[C@H](O)[C@H]2O)cc1 | 8.7
* CC(=O)OC[C@H]1O[C@@H](n2nncc2-c2ccc(S(N)(=O)=O)cc2)[C@H](OC(C)=O)[C@@H](OC(C)=O)[C@@H]1O[C@H]1O[C@H](COC(C)=O)[C@@H](OC(C)=O)[C@H](OC(C)=O)[C@H]1OC(C)=O | 7.4
* NS(=O)(=O)c1ccc(-c2cnnn2[C@@H]2O[C@H](CO)[C@H](O)[C@H](O)[C@H]2O)cc1 | 8.4
* CC(=O)O[C@H]1[C@H](OC(C)=O)[C@H](OC(C)=O)CO[C@H]1n1nncc1-c1ccc(S(N)(=O)=O)cc1 | 68.3
* CC(=O)OC[C@H]1O[C@@H](n2nncc2-c2ccc(S(N)(=O)=O)cc2)[C@H](OC(C)=O)[C@@H](OC(C)=O)[C@H]1OC(C)=O | 7.3

P. NS(=O)(=O)c1ccc(-c2cnnn2[C@@H]2O[C@H](CO)[C@@H](O)[C@H](O)[C@H]2O)cc1
Q. NS(=O)(=O)c1ccc(-c2cnnn2[C@@H]2OC[C@@H](O)[C@@H](O)[C@@H]2O)cc1
R. CC(=O)OC[C@H]1O[C@@H](n2nncc2-c2ccc(S(N)(=O)=O)cc2)[C@H](OC(C)=O)[C@@H](OC(C)=O)[C@@H]1OC(C)=O
Sequence the entries by Kis, beginning with the highest number. List each label, following the requested order.
Q, R, P

====

What follows is a collection of Kis values obtained with UniProt P00918.
Reported property: Kis (nM)

A. COC(=O)[C@H]1O[C@@H](n2nncc2-c2ccc(S(N)(=O)=O)cc2)[C@H](OC(C)=O)[C@@H](OC(C)=O)[C@@H]1OC(C)=O
B. CC(=O)OC[C@H]1O[C@@H](n2nncc2-c2ccc(S(N)(=O)=O)cc2)[C@H](OC(C)=O)[C@@H](OC(C)=O)[C@@H]1O[C@H]1O[C@H](COC(C)=O)[C@@H](OC(C)=O)[C@H](OC(C)=O)[C@H]1OC(C)=O
C. CC(=O)OC[C@H]1O[C@@H](n2nncc2-c2ccc(S(N)(=O)=O)cc2)[C@H](OC(C)=O)[C@@H](OC(C)=O)[C@@H]1OC(C)=O
D. NS(=O)(=O)c1ccc(-c2cnnn2[C@@H]2O[C@H](CO)[C@H](O)[C@H](O)[C@H]2O)cc1
Thanks in advance: please rank these 4 entries by Kis, highest to lowest. List each label, following the requested order.
C, D, B, A
(C: 163 nM, D: 13.9 nM, B: 6.3 nM, A: 3.1 nM)

A. CC(=O)O[C@H]1[C@H](OC(C)=O)[C@H](OC(C)=O)CO[C@H]1n1nncc1-c1ccc(S(N)(=O)=O)cc1
B. NS(=O)(=O)c1ccc(-c2cnnn2[C@@H]2O[C@H](CO)[C@@H](O)[C@H](O)[C@H]2O)cc1
C. NS(=O)(=O)c1ccc(-c2cnnn2[C@@H]2O[C@H](CO)[C@@H](O[C@H]3O[C@H](CO)[C@@H](O)[C@H](O)[C@H]3O)[C@H](O)[C@H]2O)cc1
Which order do these items take when sorted by rising Kis? List them. List each label, following the requested order.
A, C, B

a. NS(=O)(=O)c1ccc(-c2cnnn2[C@@H]2OC[C@@H](O)[C@@H](O)[C@@H]2O)cc1
b. CC(=O)OC[C@H]1O[C@@H](n2nncc2-c2ccc(S(N)(=O)=O)cc2)[C@H](OC(C)=O)[C@@H](OC(C)=O)[C@H]1OC(C)=O
Could you please tell me which of these two has the higher Kis: a or b ? Give the label of your selection.
a

====

Experiment: Selectivity ratio of Ki for carbonic anhydrase 1 to Ki for carbonic anhydrase 9
Reported property: Ratio Ki

# example entries with known answers
- CC(=O)OC[C@H]1O[C@@H](n2nncc2-c2ccc(S(N)(=O)=O)cc2)[C@H](OC(C)=O)[C@@H](OC(C)=O)[C@H]1OC(C)=O: 9.7
- CC(=O)OC[C@H]1O[C@@H](n2nncc2-c2ccc(S(N)(=O)=O)cc2)[C@H](OC(C)=O)[C@@H](OC(C)=O)[C@@H]1OC(C)=O: 42.7

P. NS(=O)(=O)c1ccc(-c2cnnn2[C@@H]2O[C@H](CO)[C@@H](O[C@H]3O[C@H](CO)[C@@H](O)[C@H](O)[C@H]3O)[C@H](O)[C@H]2O)cc1
Q. NS(=O)(=O)c1ccc(-c2cnnn2[C@@H]2OC[C@@H](O)[C@@H](O)[C@@H]2O)cc1
Look at P and Q . Which one has the lower recorded Ratio Ki number? Give the label of your selection.
P
(P: 0.56, Q: 1.7)

====

Assay: Selectivity ratio of Ki for carbonic anhydrase 2 to Ki for carbonic anhydrase 9
Reported property: Ratio Ki

# example entries with known answers
* CC(=O)OC[C@H]1O[C@@H](n2nncc2-c2ccc(S(N)(=O)=O)cc2)[C@H](OC(C)=O)[C@@H](OC(C)=O)[C@@H]1O[C@H]1O[C@H](COC(C)=O)[C@@H](OC(C)=O)[C@H](OC(C)=O)[C@H]1OC(C)=O | 0.85
* COC(=O)[C@H]1O[C@@H](n2nncc2-c2ccc(S(N)(=O)=O)cc2)[C@H](OC(C)=O)[C@@H](OC(C)=O)[C@@H]1OC(C)=O | 0.4
* NS(=O)(=O)c1ccc(-c2cnnn2[C@@H]2OC[C@@H](O)[C@@H](O)[C@@H]2O)cc1 | 0.18
* NS(=O)(=O)c1ccc(-c2cnnn2[C@@H]2O[C@H](CO)[C@@H](O[C@H]3O[C@H](CO)[C@@H](O)[C@H](O)[C@H]3O)[C@H](O)[C@H]2O)cc1 | 0.53
* CC(=O)O[C@H]1[C@H](OC(C)=O)[C@H](OC(C)=O)CO[C@H]1n1nncc1-c1ccc(S(N)(=O)=O)cc1 | 0.04
* NS(=O)(=O)c1ccc(-c2cnnn2[C@@H]2O[C@H](CO)[C@@H](O)[C@H](O)[C@H]2O)cc1 | 1.1
* CC(=O)OC[C@H]1O[C@@H](n2nncc2-c2ccc(S(N)(=O)=O)cc2)[C@H](OC(C)=O)[C@@H](OC(C)=O)[C@H]1OC(C)=O | 0.33

1. NS(=O)(=O)c1ccc(-c2cnnn2[C@@H]2O[C@H](CO)[C@H](O)[C@H](O)[C@H]2O)cc1
2. CC(=O)OC[C@H]1O[C@@H](n2nncc2-c2ccc(S(N)(=O)=O)cc2)[C@H](OC(C)=O)[C@@H](OC(C)=O)[C@@H]1OC(C)=O
Could you please tell me which of these two has the higher Ratio Ki: 1 or 2 ? Give the label of your selection.
2
(2: 5, 1: 1.7)

====

Biological target: Carbonic anhydrase 1 (Homo sapiens)
Reported property: Kis (nM)

• CC(=O)OC[C@H]1O[C@@H](n2nncc2-c2ccc(S(N)(=O)=O)cc2)[C@H](OC(C)=O)[C@@H](OC(C)=O)[C@@H]1OC(C)=O = 1360
• NS(=O)(=O)c1ccc(-c2cnnn2[C@@H]2O[C@H](CO)[C@H](O)[C@H](O)[C@H]2O)cc1 = 79
• NS(=O)(=O)c1ccc(-c2cnnn2[C@@H]2O[C@H](CO)[C@@H](O)[C@H](O)[C@H]2O)cc1 = 74
• CC(=O)OC[C@H]1O[C@@H](n2nncc2-c2ccc(S(N)(=O)=O)cc2)[C@H](OC(C)=O)[C@@H](OC(C)=O)[C@@H]1O[C@H]1O[C@H](COC(C)=O)[C@@H](OC(C)=O)[C@H](OC(C)=O)[C@H]1OC(C)=O = 6.7

a. COC(=O)[C@H]1O[C@@H](n2nncc2-c2ccc(S(N)(=O)=O)cc2)[C@H](OC(C)=O)[C@@H](OC(C)=O)[C@@H]1OC(C)=O
b. CC(=O)OC[C@H]1O[C@@H](n2nncc2-c2ccc(S(N)(=O)=O)cc2)[C@H](OC(C)=O)[C@@H](OC(C)=O)[C@H]1OC(C)=O
Look at a and b . Which one has the lower recorded Kis number? Give the label of your selection.
a
(a: 3.5 nM, b: 71 nM)

====

Test: Selectivity ratio of Ki for carbonic anhydrase 1 to Ki for carbonic anhydrase 9
Reported property: Ratio Ki

1. COC(=O)[C@H]1O[C@@H](n2nncc2-c2ccc(S(N)(=O)=O)cc2)[C@H](OC(C)=O)[C@@H](OC(C)=O)[C@@H]1OC(C)=O
2. NS(=O)(=O)c1ccc(-c2cnnn2[C@@H]2O[C@H](CO)[C@H](O)[C@H](O)[C@H]2O)cc1
Could you please tell me which of these two has the higher Ratio Ki: 1 or 2 ? Give the label of your selection.
2
(2: 9.4, 1: 0.45)
